// values below are reported Ki
Test system: Human Enterokinase (Homo sapiens, UniProt P98073)
Sequence (P98073 whole entry): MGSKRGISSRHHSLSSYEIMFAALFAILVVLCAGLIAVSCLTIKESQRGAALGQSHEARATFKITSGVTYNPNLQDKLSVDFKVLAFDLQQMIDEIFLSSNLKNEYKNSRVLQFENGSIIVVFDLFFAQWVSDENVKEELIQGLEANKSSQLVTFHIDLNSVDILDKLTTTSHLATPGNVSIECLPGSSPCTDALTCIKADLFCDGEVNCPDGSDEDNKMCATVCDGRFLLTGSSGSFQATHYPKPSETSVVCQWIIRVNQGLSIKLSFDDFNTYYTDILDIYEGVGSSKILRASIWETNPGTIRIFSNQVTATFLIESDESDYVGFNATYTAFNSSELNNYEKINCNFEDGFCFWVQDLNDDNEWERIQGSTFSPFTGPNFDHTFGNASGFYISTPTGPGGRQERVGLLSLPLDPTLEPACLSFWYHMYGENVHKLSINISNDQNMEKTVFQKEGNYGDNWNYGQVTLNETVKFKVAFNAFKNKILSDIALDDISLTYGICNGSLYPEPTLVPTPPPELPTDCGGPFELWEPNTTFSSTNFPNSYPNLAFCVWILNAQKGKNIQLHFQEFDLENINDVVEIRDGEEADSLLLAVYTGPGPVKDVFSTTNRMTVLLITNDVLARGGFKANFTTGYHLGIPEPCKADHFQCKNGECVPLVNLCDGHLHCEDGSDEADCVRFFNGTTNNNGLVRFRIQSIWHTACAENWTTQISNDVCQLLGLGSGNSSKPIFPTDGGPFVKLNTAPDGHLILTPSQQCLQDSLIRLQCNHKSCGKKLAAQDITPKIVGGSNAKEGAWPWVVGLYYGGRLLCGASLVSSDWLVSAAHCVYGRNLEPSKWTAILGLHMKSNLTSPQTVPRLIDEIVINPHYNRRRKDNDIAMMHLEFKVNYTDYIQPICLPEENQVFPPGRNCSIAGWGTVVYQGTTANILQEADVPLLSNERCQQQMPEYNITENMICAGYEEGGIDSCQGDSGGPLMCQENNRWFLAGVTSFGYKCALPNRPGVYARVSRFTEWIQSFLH
Protocol text: Inhibition of human enterokinase, Gly-(Asp)4-Lys-2-Nap as substrate
Assay type: biochemical
Experimental setup: substrate Gly-(Asp)4-Lys-2-Nap; linear regression of 1/v against [I] at three substrate concentrations
Residues, ends and D or L forms follow the SMILES beside them. *: point of attachment. Boc = CC(C)(C)OC(=O)*
# output: bare number, implied unit nM

Molecule	Measure unit	Ki
CC(C)(C)OC(=O)N[C@@H](CC(=O)O)C(=O)N[C@@H](CC(=O)O)C(=O)N[C@H](C=O)CCCNC(=N)N [Boc(Asp)2 Argal, Boc--(Asp)2 --Argininal] (Boc-Asp-Asp-Arg-aldehyde)	nM	200
CC(C)(C)OC(=O)N[C@@H](CC(=O)O)C(=O)N[C@@H](CC(=O)O)C(=O)N[C@@H](CC(=O)O)C(=O)N[C@H](C=O)CCCNC(=N)N [Boc(Asp)3 Argal, Boc--(Asp)3 --Argininal] (Boc-DDDR-aldehyde)	nM	100
CC(C)(C)OC(=O)N[C@@H](CC(=O)O)C(=O)N[C@@H](CC(=O)O)C(=O)N[C@@H](CC(=O)O)C(=O)N[C@@H](CC(=O)O)C(=O)N[C@H](C=O)CCCNC(=N)N [Boc(Asp)4 Argal, Boc--(Asp)4 --Argininal] (Boc-DDDDR-aldehyde)	nM	55

Turning now to a further record.
Record CC(=O)N[C@@H](CC(C)C)C(=O)N[C@@H](CC(C)C)C(=O)N[C@H](C=O)CCCNC(=N)N [Leupeptin, reference compound] , field Ki: 1000

###

# pKi measurements, system: Pig Enterokinase (Sus scrofa)
# Sequence (P98074 52-1034): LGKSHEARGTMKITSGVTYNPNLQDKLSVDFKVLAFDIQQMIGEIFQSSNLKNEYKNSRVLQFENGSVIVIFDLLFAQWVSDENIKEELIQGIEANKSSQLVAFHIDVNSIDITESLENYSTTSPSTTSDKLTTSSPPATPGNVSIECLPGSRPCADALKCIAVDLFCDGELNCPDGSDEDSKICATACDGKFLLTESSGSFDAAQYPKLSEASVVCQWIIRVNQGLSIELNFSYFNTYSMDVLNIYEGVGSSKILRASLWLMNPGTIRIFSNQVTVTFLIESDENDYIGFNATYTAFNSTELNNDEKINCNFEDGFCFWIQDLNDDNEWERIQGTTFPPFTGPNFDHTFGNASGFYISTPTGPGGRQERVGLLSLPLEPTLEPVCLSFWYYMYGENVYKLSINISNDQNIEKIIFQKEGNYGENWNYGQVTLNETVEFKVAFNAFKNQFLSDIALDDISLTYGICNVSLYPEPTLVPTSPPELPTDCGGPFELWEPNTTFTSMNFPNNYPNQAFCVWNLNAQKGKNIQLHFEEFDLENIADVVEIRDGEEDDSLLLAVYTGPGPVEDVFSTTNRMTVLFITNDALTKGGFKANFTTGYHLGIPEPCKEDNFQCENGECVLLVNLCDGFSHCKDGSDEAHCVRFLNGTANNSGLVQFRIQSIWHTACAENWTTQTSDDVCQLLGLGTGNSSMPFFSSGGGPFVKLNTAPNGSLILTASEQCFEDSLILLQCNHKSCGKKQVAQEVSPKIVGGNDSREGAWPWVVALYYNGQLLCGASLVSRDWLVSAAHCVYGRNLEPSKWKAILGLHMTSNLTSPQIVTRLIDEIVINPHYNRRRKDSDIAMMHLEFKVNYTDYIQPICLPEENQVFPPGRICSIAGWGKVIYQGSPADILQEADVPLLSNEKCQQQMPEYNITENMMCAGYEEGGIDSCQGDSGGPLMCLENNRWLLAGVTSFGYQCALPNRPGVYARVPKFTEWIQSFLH
Residues, ends and D or L forms follow the SMILES beside them. *: point of attachment. Boc = CC(C)(C)OC(=O)*
Expect pKi as a plain number equal to -log10 of the molar concentration.

Compound	Test system	Reported result
CC(C)(C)OC(=O)N[C@@H](CC(=O)O)C(=O)N[C@@H](CC(=O)O)C(=O)N[C@H](C=O)CCCNC(=N)N [Boc(Asp)2 Argal, Boc--(Asp)2 --Argininal] (Boc-Asp-Asp-Arg-aldehyde)	Pig Enterokinase (Sus scrofa)	7.30
CC(C)(C)OC(=O)N[C@@H](CC(=O)O)C(=O)N[C@@H](CC(=O)O)C(=O)N[C@@H](CC(=O)O)C(=O)N[C@H](C=O)CCCNC(=N)N [Boc(Asp)3 Argal, Boc--(Asp)3 --Argininal] (Boc-DDDR-aldehyde)	Pig Enterokinase (Sus scrofa)	7.46

Turning now to a further record.
# value of pKi, Pig Enterokinase (Sus scrofa), item CC(C)(C)OC(=O)N[C@@H](CC(=O)O)C(=O)N[C@@H](CC(=O)O)C(=O)N[C@@H](CC(=O)O)C(=O)N[C@@H](CC(=O)O)C(=O)N[C@H](C=O)CCCNC(=N)N [Boc(Asp)4 Argal, Boc--(Asp)4 --Argininal] (Boc-DDDDR-aldehyde) = 7.70

###

Test system: UniProt:P98073
Protocol text: Inhibition of human enterokinase, α-N-[3H]acetyl trypsinogen as substrate
Assay type: biochemical
Experimental setup: substrate α-N-[3H]acetyltrypsinogen
Description: Biological testing was carried out on the polyaspartyl argininal materials prepared as described above without further purification. […] Inhibition constants Ki for human and pig enterokinase were calculated using α-N-[^3 H] acetyl trypsinogen and Gly-(Asp)4 -Lys-2-Nap as substrates using linear regression analysis of l/v against [I] at three substrate concentrations. […]
Residues, ends and D or L forms follow the SMILES beside them. *: point of attachment. Boc = CC(C)(C)OC(=O)*
Parameter: pKi
Expect pKi as a plain number equal to -log10 of the molar concentration.

Would you please look over these solved cases?
Compound	Parameter	Reported result
CC(C)(C)OC(=O)N[C@@H](CC(=O)O)C(=O)N[C@@H](CC(=O)O)C(=O)N[C@H](C=O)CCCNC(=N)N [Boc(Asp)2 Argal, Boc--(Asp)2 --Argininal] (Boc-Asp-Asp-Arg-aldehyde)	pKi	8.00
CC(C)(C)OC(=O)N[C@@H](CC(=O)O)C(=O)N[C@@H](CC(=O)O)C(=O)N[C@@H](CC(=O)O)C(=O)N[C@@H](CC(=O)O)C(=O)N[C@H](C=O)CCCNC(=N)N [Boc(Asp)4 Argal, Boc--(Asp)4 --Argininal] (Boc-DDDDR-aldehyde)	pKi	8.00

Turning now to a further record.
Record CC(C)(C)OC(=O)N[C@@H](CC(=O)O)C(=O)N[C@@H](CC(=O)O)C(=O)N[C@@H](CC(=O)O)C(=O)N[C@H](C=O)CCCNC(=N)N [Boc(Asp)3 Argal, Boc--(Asp)3 --Argininal] (Boc-DDDR-aldehyde) , field pKi: 7.70

###

Test system: Human Enterokinase (Homo sapiens, UniProt P98073)
Protocol text: Inhibition of human enterokinase, Gly-(Asp)4-Lys-2-Nap as substrate
Assay type: biochemical
Experimental setup: substrate Gly-(Asp)4-Lys-2-Nap; linear regression of 1/v against [I] at three substrate concentrations
No end group written: not given here.
Parameter: pKi
Expect pKi as a plain number equal to -log10 of the molar concentration.

Record APFDDDDK [Ala--Pro--Phe--(Asp)4 Lys, reference compound] , field pKi: 3.12
